assay: BSK_hDFCGF_SRB: Viability Assessment in the BioMAP Diversity Plus: hDFCGF Assay (AID 2283061); details: primary human foreskin fibroblasts;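 also: cells exposed to compound for 24 h before the read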
Calls of active or inactive are those of the source. The calls were made as follows: active = hit-call score of the fitted dose curve at least 0.9, where 1 is the maximum; inactive = score below 0.9.
Hi there, use one of these labels in your reply, thanks! active, inactive

Field: example entries. Status: answers known.
{"columns": ["compound_string", "label"],
 "data": [
  ["CNC(=O)Oc1cccc(N=CN(C)C)c1", "inactive"],
  ["N#Cc1c(Cl)c(Cl)c(Cl)c(C#N)c1Cl", "active"],
  ["O=C1c2ccccc2C(=O)N1SC(Cl)(Cl)Cl", "active"],
  ["C[C@H]1[C@H](c2ccc(Cl)cc2)SC(=O)N1C(=O)NC1CCCCC1", "active"],
  ["O=[N+]([O-])c1c(Cl)c(Cl)c(Cl)c(Cl)c1Cl", "active"],
  ["CNC(=O)/C=C(\\C)OP(=O)(OC)OC", "inactive"],
  ["CCOCN(C(=O)CCl)c1c(C)cccc1CC", "inactive"],
  ["COc1nn(CSP(=S)(OC)OC)c(=O)s1", "inactive"],
  ["OCCOc1ccccc1", "inactive"],
  ["COC(=O)c1ccccc1S(=O)(=O)NC(=O)Nc1nc(C)nc(OC)n1", "inactive"]
]}

In: Called result for "O=C(O)COc1ccc(Cl)cc1Cl"
Out: inactive

In: Also check "O=[N+]([O-])/N=C1\NCCN1Cc1ccc(Cl)nc1"
Out: inactive

In: Proceed to "CC(C)N(C(=O)COc1nnc(C(F)(F)F)s1)c1ccc(F)cc1"
Out: inactive

In: Same for "CNC(=O)Oc1ccccc1OC(C)C"
Out: inactive

====

Read-out: MYC, MYC (gene 4609)
Test: LTEA_HepaRG_MYC: Life Technologies and Expression Analysis (LTEA) Assay for MYC using HepaRG (AID 2283518)
Details: mRNA level, 48 h; actives raise or lower the signal
Description: LTEA_HepaRG is a cell based, multiplexed-readout assay that uses HepaRG, a human liver cell line, with measurements taken at 48 hours after chemical dosing on a 96-well plate.LTEA_HepaRG_MYC is one of 102 assay component(s) measured in the LTEA HepaRG cell culture assay. It is a marker of Cell proliferation, survival, death.Data from the assay component LTEA_HepaRG_MYC was analyzed into 1 endpoint. […]
Calls of active or inactive are those of the source. How the source made its calls: active means hit-call score of the fitted dose curve at least 0.9, where 1 is the maximum; inactive means score below 0.9.
Answer with one of the outcomes given here: 1 (active), -1 (inactive)

Use these answered entries as a reference point.
{"columns": ["molecule", "label"],
 "data": [
  ["ClC1C(Cl)C(Cl)C(Cl)C(Cl)C1Cl (stereo unspecified)", -1],
  ["O=S1OCC2C(CO1)C1(Cl)C(Cl)=C(Cl)C2(Cl)C1(Cl)Cl (stereo unspecified)", 1]
]}

In: Can you look up the reported call for CC1(c2ccc(Oc3ccccc3)cc2)OC(=O)N(Nc2ccccc2)C1=O (stereo unspecified) for me?
Out: 1

In: Here is the next molecule: "CNC(=O)/C=C(\C)OP(=O)(OC)OC"
Out: -1

In: And for "COP(=S)(OC)Oc1ccc([N+](=O)[O-])cc1" ?
Out: -1

In: Now give it for "O=C(O)CCCOc1ccc(Cl)cc1Cl" too.
Out: -1

In: Subsequent entry: "CNC(=O)CSP(=S)(OC)OC"
Out: -1

In: Let us now turn to "CC(C)OC(=O)Nc1cccc(Cl)c1"
Out: -1

In: // repeat for "CC(C)N(C(=O)COc1nnc(C(F)(F)F)s1)c1ccc(F)cc1" and report
Out: -1

In: Queued: CCC(C)Nc1c([N+](=O)[O-])cc(C(C)(C)C)cc1[N+](=O)[O-] (stereo unspecified)
Out: -1

In: Now this one: "CNC(=O)Oc1cccc(N=CN(C)C)c1"
Out: -1

In: Consider next the molecule "N#CN" in the same way.
Out: -1

In: Same thing, different molecule: "C#CCN1C(=O)COc2cc(F)c(N3C(=O)C4=C(CCCC4)C3=O)cc21"
Out: -1

In: Try this molecule too: "COc1nn(CSP(=S)(OC)OC)c(=O)s1"
Out: -1

In: Input "O=C(O)C(F)(F)C(F)(F)C(F)(F)C(F)(F)C(F)(F)C(F)(F)C(F)(F)F"
Out: -1

In: Entry to check: CC1(C)C(C=C(Cl)Cl)C1C(=O)OC(C#N)c1ccc(F)c(Oc2ccccc2)c1 (stereo unspecified)
Out: -1

In: Another: "OCCOc1ccccc1"
Out: -1

====

biological target: human Dopamine Transporter (DAT), SLC6A3 (gene 6531); experiment: NVS_TR_hDAT: NovaScreen (NVS) Transporter Assay for human Dopamine Transporter (DAT) (AID 2283374);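 also: activity means loss of bound radioligand signal relative to DMSO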
Inconclusive results are not listed. Calls of active or inactive are those of the source. Rule for the calls: active = hit-call score of the fitted dose curve at least 0.9, where 1 is the maximum; inconclusive = response in the unintended direction; inactive = score below 0.9.
Answer each item with its documented AC50.

Example cases with answers are listed next.
{"columns": ["compound", "readout_kind", "value_measured"],
 "data": [
  ["COP(=S)(OC)Oc1ccc(SC)c(C)c1", "AC50", "7.96 µM (active)"],
  ["CC(C)N(C(=O)COc1nnc(C(F)(F)F)s1)c1ccc(F)cc1", "AC50", "13.6 µM (active)"]
]}

For each of the compounds below, state AC50.
1. COP(=S)(OC)Oc1ccc([N+](=O)[O-])cc1
2. Oc1cc(Cl)ccc1Oc1ccc(Cl)cc1Cl
3. O=S1OCC2C(CO1)C1(Cl)C(Cl)=C(Cl)C2(Cl)C1(Cl)Cl (stereo unspecified)
4. CC1(C)C(C=C(Cl)Cl)C1C(=O)OC(C#N)c1ccc(F)c(Oc2ccccc2)c1 (stereo unspecified)

Out:
1: 25 µM (active); 2: 21.3 µM (active) [middle of 4 runs]; 3: 10.9 µM (active); 4: 2.03 µM (active)

====

read-out: Plasminogen activator inhibitor-1 (PAI1), SERPINE1 (gene 5054); experiment: BSK_hDFCGF_PAI1: BioMAP Diversity Plus: hDFCGF Assay for Plasminogen activator inhibitor-1 (PAI1) Biomarker Activity (AID 2283066); details: primary human foreskin fibroblasts; actives raise or lower the signal
Calls of active or inactive are those of the source. Rule for the calls: active = hit-call score of the fitted dose curve at least 0.9, where 1 is the maximum; inactive = score below 0.9.
Respond with a class label; see active, inactive

{"columns": ["compound", "label"],
 "data": [
  ["CCc1ccc(C(=O)NN(C(=O)c2cc(C)cc(C)c2)C(C)(C)C)cc1", "inactive"],
  ["CNC(=O)CSP(=S)(OC)OC", "inactive"],
  ["CN1CSC(=S)N(C)C1", "active"],
  ["CNC(=O)Oc1ccccc1OC(C)C", "inactive"],
  ["CC(C)N(C(=O)COc1nnc(C(F)(F)F)s1)c1ccc(F)cc1", "inactive"],
  ["O=C(Nc1ccccc1)Nc1cnns1", "inactive"]
]}

In: State the result this test recorded for "Clc1ccccc1-c1nnc(-c2ccccc2Cl)nn1" .
Out: inactive

In: Also "C#CCN1C(=O)COc2cc(F)c(N3C(=O)C4=C(CCCC4)C3=O)cc21" , if possible.
Out: inactive

In: Next compound up: "O=C(O)CCCOc1ccc(Cl)cc1Cl"
Out: inactive

In: And "Cc1[nH]c(=O)n(C(C)(C)C)c(=O)c1Cl" ?
Out: inactive

In: Try the compound "CC(C)OC(=O)Nc1cccc(Cl)c1"
Out: inactive

In: Another compound to check: "O=[N+]([O-])c1c(Cl)c(Cl)c(Cl)c(Cl)c1Cl"
Out: active

In: Entry to check: "CCOc1nc(NC)nc(NC(=O)NS(=O)(=O)c2ccccc2C(=O)OC)n1"
Out: active

In: Quick one: "Oc1ccc(Cl)cc1Cc1ccccc1"
Out: active

In: And the next one, CCC(C)(NC(=O)c1cc(Cl)c(C)c(Cl)c1)C(=O)CCl (stereo unspecified) ?
Out: active

====

test: CPHEA_Stoker_NIS_Cytotoxicity: Cytotoxicity Assessment for CPHEA's Radioactive Iodide Uptake (RAIU) Assay for Sodium/Iodide Symporter (NIS) Inhibition, Stoker and Laws Labs (AID 2283897)
Active and inactive are the calls of the source. Rule for the calls: active = hit-call score of the fitted dose curve at least 0.9, where 1 is the maximum; inconclusive = response in the unintended direction; inactive = score below 0.9.
Respond using exactly one of the listed classes: YES for active, NO for inactive

Illustrative cases are given below, each with its answer.
{"columns": ["molecule", "label"],
 "data": [
  ["CCCN(CCC)c1c([N+](=O)[O-])cc(C(F)(F)F)cc1[N+](=O)[O-]", "NO"],
  ["O=C1c2ccccc2C(=O)N1SC(Cl)(Cl)Cl", "NO"],
  ["N#Cc1c(Cl)c(Cl)c(Cl)c(C#N)c1Cl", "NO"],
  ["CCN(CC)C(=O)SCc1ccc(Cl)cc1", "NO"],
  ["C[C@H]1[C@H](c2ccc(Cl)cc2)SC(=O)N1C(=O)NC1CCCCC1", "NO"]
]}

In: Which outcome was entered for the molecule CCC(C)Nc1c([N+](=O)[O-])cc(C(C)(C)C)cc1[N+](=O)[O-] (stereo unspecified) in this test?
Out: NO

In: Similarly, "C#CCN1C(=O)COc2cc(F)c(N3C(=O)C4=C(CCCC4)C3=O)cc21" ?
Out: YES

In: Follow-up item: CC1(c2ccc(Oc3ccccc3)cc2)OC(=O)N(Nc2ccccc2)C1=O (stereo unspecified)
Out: YES

In: What would you report for "COc1nn(CSP(=S)(OC)OC)c(=O)s1" ?
Out: NO

In: Further, for "CCc1ccc(C(=O)NN(C(=O)c2cc(C)cc(C)c2)C(C)(C)C)cc1" ?
Out: NO

In: Try this molecule next: CC1(C)C(C=C(Cl)Cl)C1C(=O)OC(C#N)c1ccc(F)c(Oc2ccccc2)c1 (stereo unspecified)
Out: NO
